- test_target: T1, RADIL, Q96JH8
- T1 sequence (Q96JH8 971-1071, limits assumed, looked up): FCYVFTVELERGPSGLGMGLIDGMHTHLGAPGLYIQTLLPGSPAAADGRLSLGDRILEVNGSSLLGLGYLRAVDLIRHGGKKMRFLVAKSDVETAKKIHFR
- assay_summary: holdup assay
- Parameters: key: below the threshold = too weak to quantify, mostly under pKd 3.1 to 4
- applied_conditions: plain residues with an end cap or a label only (N-terminal biotin on a linker: ado-ado)
reported_property: pKd

binder | measured
REEPDHSTEV [CCRL2, O00421] | 3.96
SPDRDRESIV [SCN5A, Q14524] | 4.12
APIAGFSSFV [SDK2, Q58EX2] | 5.17
ARESQKVSHV [FAM110B, Q8TC76] | 4.55
